# Experiment summary: NCI Yeast Anticancer Drug Screen. Data for the rad50EPP+ strain (AID 151);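 also: 0% = growth of vehicle-treated control cultures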
# Run conditions: S. cerevisiae rad50 mutant strain, at 11.0 µM, hits give high values
The panel holds about 79,000 compounds, 15% with a hit somewhere; the sample as a whole holds those more often. Calls of active or inactive are those of the source. Rule as the data show it: active = growth inhibition above about 70%; inactive = the rest.
Observable: growth inhibition

Some entries whose results are on file:
• Cc1ccc(C(C)C)c(C(=C2C=CC(=[N+](C)C)C=C2)c2c(C(C)C)ccc(C)c2O)c1O = -1% (inactive)
• [O-]c1c2cc(-[n+]3c(-c4ccccc4)cc(-c4ccccc4)cc3-c3ccccc3)cc1COCCOCCOCCOCCOC2 = 5% (inactive)
• COC(=O)C1(N2CCOCC2)CCC([C@@H](c2ccccc2)C(C)[N+](=O)[O-])C1 (stereo not given in full) = 15% (inactive)
• Clc1ccc(C(c2ccc(Cl)cc2)N2CCNCC2)cc1 = 5% (inactive)
• CC(=O)CC[N+](C)(C)C = -4% (inactive)

We next turn to a different compound, shown below.
IN: Request the reported growth inhibition associated with CCCCCCCCCCCCOC1C(COCCN2CCCC2)OC2OC(C)(C)OC21 (stereo not given)
OUT: 2% (inactive)

Each recorded value in this set is attributed to PubChem BioAssay (NCI).
